assay: in vitro; details: rat, gh3-tre-luc cells, AC50 (uM) modified / 1000
Counter-ions that a name gives are not always drawn.
# CC50 at 24 h annotations

See these solved cases before continuing.
Compound	CC50 at 24 h
CCC(CC)CO	> 90 µM
COCCCN	> 90 µM
CN(C)C [Trimethylamine hydrochloride]	> 90 µM

# CC50 at 24 h lookup, item Nc1nc(N)c2nc(-c3ccccc3)c(N)nc2n1
> 90 µM

I have this compound here, Cc1c(C(=O)O)c(O)cc2c1C(=O)c1c(O)c(C3OC(CO)C(O)C(O)C3O)c(O)c(O)c1C2=O (centres unmarked) , and I need its recorded CC50 at 24 h.
29.1 µM

Please look up its CC50 at 24 h: CCc1nn(C2CCCCC2)c2cc(C3(C#N)CCC(C(=O)O)CC3)ccc12 (centres unmarked)
49.9 µM

Need CC50 at 24 h, item CCCCCCCC(=O)OCC(COC(=O)CCCCCCC)OC(=O)CCCCCCC
> 90 µM

# lookup: CC50 at 24 h of CCOCC(=O)O
> 90 µM

Recorded CC50 at 24 h for CN1CCc2cc(Cl)c(O)cc2[C@H]2c3ccccc3CC[C@@H]21 , please?
17.4 µM

Which CC50 at 24 h is reported for this compound? CN(c1nccc(=O)[nH]1)C1CCN(c2nc3ccccc3n2Cc2ccc(F)cc2)CC1
> 50 µM

Which measured CC50 at 24 h value corresponds to Oc1ccc2cc(SSc3ccc4cc(O)ccc4c3)ccc2c1 [6-Hydroxy-2-naphthyl disulfide] ?
> 90 µM

Quick one: CC50 at 24 h for Nc1ncnc2c1ncn2[C@@H]1O[C@H](CO)[C@@H](O)[C@H]1O ?
> 50 µM

May I ask what CC50 at 24 h has been recorded for CN1CCN(CCC(=O)N2c3ccccc3Sc3ccc(C(F)(F)F)cc32)CC1 ?
25.8 µM

Requested read-out: CC50 at 24 h. Entry: OCCN(CCO)c1cccc(Cl)c1
> 90 µM
